species: Rattus norvegicus; experiment: The compound was tested for milk ejection activity in rat; format: functional; design: unit not given here
Positions of bridges follow the written chain, without caps; N, C: chain ends. Non-standard residues stand in square brackets, D forms with d. Residues, ends and D or L forms follow the SMILES beside them. NMeA = CN[C@@H](C)C(=O)O; Mpa = O=C(O)CCS; Sar = CNCC(=O)O
Consider the following compounds and their measured Activity readings.
Just the number.

Input line: Please report the recorded Activity for CC[C@H](C)[C@@H]1NC(=O)[C@H](Cc2ccc(O)cc2)NC(=O)CCSSC[C@@H](C(=O)N(C)[C@@H](C)C(=O)N[C@@H](CC(C)C)C(=O)NCC(N)=O)NC(=O)[C@H](CC(N)=O)NC(=O)[C@H](CCC(N)=O)NC1=O ([Mpa]YIQNC[NMeA]LG-NH2; disulfide 1-6) .
Output line: 157

Input line: Quick one: CN(CC(=O)N[C@@H](CCCN=C(N)N)C(=O)NCC(N)=O)C(=O)[C@@H]1CSSC[C@H](N)C(=O)N[C@@H](Cc2ccc(O)cc2)C(=O)N[C@@H](Cc2ccccc2)C(=O)N[C@@H](CCC(N)=O)C(=O)N[C@@H](CC(N)=O)C(=O)N1 (H-CYFQNC[Sar]RG-NH2; disulfide 1-6)
Output line: 9.3

----------
species on record: Rattus norvegicus; assay: Tested for vasopressor activity in rat; format: functional; parameters: unit not given here
Positions of bridges follow the written chain, without caps; N, C: chain ends. Non-standard residues stand in square brackets, D forms with d. Residues, ends and D or L forms follow the SMILES beside them. NMeA = CN[C@@H](C)C(=O)O; Mpa = O=C(O)CCS; Sar = CNCC(=O)O
READOUT: Activity
Just the number.

Here are 3 compounds together with their reported answers.
INSERT INTO measurements (compound, numeric_readout) VALUES
  ('CN(CC(=O)N[C@@H](CCCN=C(N)N)C(=O)NCC(N)=O)C(=O)[C@@H]1CSSCCC(=O)N[C@@H](Cc2ccc(O)cc2)C(=O)N[C@@H](Cc2ccccc2)C(=O)N[C@@H](CCC(N)=O)C(=O)N[C@@H](CC(N)=O)C(=O)N1 ([Mpa]YFQNC[Sar]RG-NH2; disulfide 1-6)', 49),
  ('CC[C@H](C)[C@@H]1NC(=O)[C@H](Cc2ccc(O)cc2)NC(=O)[C@@H](N)CSSC[C@@H](C(=O)NCC(=O)N[C@@H](CC(C)C)C(=O)NCC(N)=O)NC(=O)[C@H](CC(N)=O)NC(=O)[C@H](CCC(N)=O)NC1=O', 0.01),
  ('C[C@@H](C(=O)N[C@@H](CCCN=C(N)N)C(=O)NCC(N)=O)N(C)C(=O)[C@@H]1CSSCCC(=O)N[C@@H](Cc2ccc(O)cc2)C(=O)N[C@@H](Cc2ccccc2)C(=O)N[C@@H](CCC(N)=O)C(=O)N[C@@H](CC(N)=O)C(=O)N1 ([Mpa]YFQNC[NMeA]RG-NH2; disulfide 1-6)', 8);

Attention now turns to another entry.
Input line: Please report the recorded Activity for "CC[C@H](C)[C@@H]1NC(=O)[C@H](Cc2ccc(O)cc2)NC(=O)[C@@H](N)CSSC[C@@H](C(=O)N[C@@H](C)C(=O)N[C@@H](CC(C)C)C(=O)NCC(N)=O)NC(=O)[C@H](CC(N)=O)NC(=O)[C@H](CCC(N)=O)NC1=O" .
Output line: 0.4

Just for reference, ChEMBL document CHEMBL1122363 is where these values come from.
